# Assay System: T1, MKLP2^557-668:CPI80 (survivin, INCENP^1-80, borealin^10-109) (human, UniProt O95235 557-668; O15392 1-142; Q9NQS7 1-80; Q53HL2 10-109)
# T1 construct: survivin, human; INCENP, human, residues 1-80; borealin, human, residues 10-109; also called MKLP2:CPI80; not shown: His6, N-terminal, cleaved; GST, N-terminal, cleaved; copies: 2 + 2 + 2 + 2
# T1 sequence (O95235 557-668, chain 1 of 4): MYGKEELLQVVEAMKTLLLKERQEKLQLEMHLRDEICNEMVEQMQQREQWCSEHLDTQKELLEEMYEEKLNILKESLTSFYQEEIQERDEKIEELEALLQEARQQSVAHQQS
# T1 sequence (O15392 whole entry, chain 2 of 4, the tested form may be a part): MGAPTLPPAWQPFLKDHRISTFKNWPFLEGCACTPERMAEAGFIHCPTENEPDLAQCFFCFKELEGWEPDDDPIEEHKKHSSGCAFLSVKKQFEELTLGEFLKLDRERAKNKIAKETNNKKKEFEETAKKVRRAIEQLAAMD
# T1 sequence (Q9NQS7 1-80, chain 3 of 4): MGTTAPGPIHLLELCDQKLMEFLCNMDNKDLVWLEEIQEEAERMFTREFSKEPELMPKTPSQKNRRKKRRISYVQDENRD
# T1 sequence (Q53HL2 10-109, chain 4 of 4): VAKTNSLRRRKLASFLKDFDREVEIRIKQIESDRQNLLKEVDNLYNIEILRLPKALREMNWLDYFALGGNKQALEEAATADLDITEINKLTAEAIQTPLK
# Assay Explanation: ITC; 400 µM peptide injected into 50 µM protein; 100 mM NaCl, 20 mM Tris-HCl pH 7.2, 1 mM DTT; 25°C; 1:1 binding model
# Details: both partners purified
Reported Property: pKd
For clarity, pKd is expressed as the negative log10 of concentration in mol/L.

Q) Reported pKd for ARTKQTARKSTG (histone H3 residues 1-12; also called H3T3 nonphosphopeptide; nonphosphorylated H3 peptide; source: synthetic peptide (Peptide Protein Research Ltd)) [H3 (1–12) peptide] : what is it?
A) 5.55

Data origin, for the record: paper PMC7337490
